Source listed as PubChem BioAssay AID1963965.

tested on: 996289-038-R-J1-PDC spheroid viability; assay: Anticancer human tumor 996289-038-R-J1-PDC patient-derived colon adenocarcinoma cell line growth inhibition [PI3K]; settings: second compound 0.00316 µM; first compound 0.0316 µM; stronger effect = lower value; spheroids with HUVEC and MSC
Overview of recorded viability, T/C for various compounds
reported_endpoint: viability, T/C (%)

compound	reported_endpoint	unit_string	experimental_value
CCN1CCN(Cc2ccc(Nc3ncc(F)c(-c4cc(F)c5nc(C)n(C(C)C)c5c4)n3)nc2)CC1 + CC(Nc1ccc2c(c1)OCCn1cc(N3C(=O)OCC3C(F)F)nc1-2)C(N)=O	viability, T/C	%	93.2
CCCS(=O)(=O)Nc1ccc(F)c(C(=O)c2c[nH]c3ncc(-c4ccc(Cl)cc4)cc23)c1F + CC(Nc1ccc2c(c1)OCCn1cc(N3C(=O)OCC3C(F)F)nc1-2)C(N)=O	viability, T/C	%	108
CC1(C)CCC(Nc2ncc(C(F)(F)F)c(-c3c[nH]c4c(P(C)(C)=O)c(C#N)ccc34)n2)CN1 (stereo not given) + COc1c(OCCCN2CCOCC2)ccc2c3n(c(=NC(=O)c4cnc(N)nc4)nc12)CCN3	viability, T/C	%	106
CC(Cn1ccc(-c2ccc(C#N)c(Cl)c2)n1)NC(=O)c1cc(C(C)O)[nH]n1 (stereo not given) + CC(Nc1ccc2c(c1)OCCn1cc(N3C(=O)OCC3C(F)F)nc1-2)C(N)=O	viability, T/C	%	86
Cn1ncc(Cl)c1-c1cc(C(=O)NC(CN)Cc2cccc(F)c2)sc1Cl (stereo not given) + CC(Nc1ccc2c(c1)OCCn1cc(N3C(=O)OCC3C(F)F)nc1-2)C(N)=O	viability, T/C	%	83.3

====

tested on: 996289-038-R-J1-PDC spheroid viability; test: Anticancer human tumor 996289-038-R-J1-PDC cell line growth inhibition [PI3K]; settings: curve of first compound; second compound 0.0316 µM; spheroids with HUVEC and MSC;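 note: spheroids exposed to compounds for seven days before viability read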
pIC50: −log10 of the molar value.

compound	pIC50
CC(=O)c1c(C)c2cnc(Nc3ccc(N4CCNCC4)cn3)nc2n(C2CCCC2)c1=O + COc1c(OCCCN2CCOCC2)ccc2c3n(c(=NC(=O)c4cnc(N)nc4)nc12)CCN3	< 7.00
CCN1CCN(Cc2ccc(Nc3ncc(F)c(-c4cc(F)c5nc(C)n(C(C)C)c5c4)n3)nc2)CC1 + Cc1nc(NC(=O)N2CCCC2C(N)=O)sc1-c1ccnc(C(C)(C)C(F)(F)F)c1	< 6.00
CC(C)NCC(C(=O)N1CCN(c2ncnc3c2C(C)CC3O)CC1)c1ccc(Cl)cc1 (stereo unspecified) + CC(Nc1ccc2c(c1)OCCn1cc(N3C(=O)OCC3C(F)F)nc1-2)C(N)=O	< 5.00
CNC(=O)c1ccc(N2C(=S)N(c3ccc(C#N)c(C(F)(F)F)c3)C(=O)C2(C)C)cc1F + COc1c(OCCCN2CCOCC2)ccc2c3n(c(=NC(=O)c4cnc(N)nc4)nc12)CCN3	< 5.00
CC(Cn1ccc(-c2ccc(C#N)c(Cl)c2)n1)NC(=O)c1cc(C(C)O)[nH]n1 (stereo unspecified) + Cc1nc(NC(=O)N2CCCC2C(N)=O)sc1-c1ccnc(C(C)(C)C(F)(F)F)c1	< 5.00
CNC(=O)c1ccc(N2C(=S)N(c3ccc(C#N)c(C(F)(F)F)c3)C(=O)C2(C)C)cc1F + Cc1nc(NC(=O)N2CCCC2C(N)=O)sc1-c1ccnc(C(C)(C)C(F)(F)F)c1	< 5.00
C=CC(=O)N1CCN(c2nc(=O)n(-c3c(C)ccnc3C(C)C)c3nc(-c4c(O)cccc4F)c(F)cc23)C(C)C1 (stereo unspecified) + CC(Nc1ccc2c(c1)OCCn1cc(N3C(=O)OCC3C(F)F)nc1-2)C(N)=O	< 5.00
CC(Cn1ccc(-c2ccc(C#N)c(Cl)c2)n1)NC(=O)c1cc(C(C)O)[nH]n1 (stereo unspecified) + CC(Nc1ccc2c(c1)OCCn1cc(N3C(=O)OCC3C(F)F)nc1-2)C(N)=O	< 5.00
Cn1ncc(Cl)c1-c1cc(C(=O)NC(CN)Cc2cccc(F)c2)sc1Cl (stereo unspecified) + CC(Nc1ncnc2nc[nH]c12)c1cc2cccc(Cl)c2c(=O)n1-c1ccccc1	< 5.00
CCN1CCN(Cc2ccc(Nc3ncc(F)c(-c4cc(F)c5nc(C)n(C(C)C)c5c4)n3)nc2)CC1 + CC(Nc1ccc2c(c1)OCCn1cc(N3C(=O)OCC3C(F)F)nc1-2)C(N)=O	< 6.00
CCN1CCN(Cc2ccc(Nc3ncc(F)c(-c4cc(F)c5nc(C)n(C(C)C)c5c4)n3)nc2)CC1 + COc1c(OCCCN2CCOCC2)ccc2c3n(c(=NC(=O)c4cnc(N)nc4)nc12)CCN3	< 6.00

====

tested on: 996289-038-R-J1-PDC spheroid viability; assay: Anticancer human tumor 996289-038-R-J1-PDC cell line growth inhibition [PI3K]; conditions: curve of first compound; second compound 0.00316 µM; spheroids with HUVEC and MSC;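 note: spheroids exposed to compounds for seven days before viability read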
pIC50: −log10 of the molar value.
Overview of recorded pIC50 for various compounds

compound	target_under_test	pIC50
CC(C)n1nc(-c2ccc3oc(N)nc3c2)c2c(N)ncnc21 + CC(Nc1ccc2c(c1)OCCn1cc(N3C(=O)OCC3C(F)F)nc1-2)C(N)=O	996289-038-R-J1-PDC spheroid viability	7.29
CC1(C)CCC(CN2CCN(c3ccc(C(=O)NS(=O)(=O)c4ccc(NCC5CCOCC5)c([N+](=O)[O-])c4)c(Oc4cnc5[nH]ccc5c4)c3)CC2)=C(c2ccc(Cl)cc2)C1 + CC(Nc1ccc2c(c1)OCCn1cc(N3C(=O)OCC3C(F)F)nc1-2)C(N)=O	996289-038-R-J1-PDC spheroid viability	5.07
Cn1ncnc1[C@H]1c2n[nH]c(=O)c3cc(F)cc(c23)N[C@@H]1c1ccc(F)cc1 + COc1c(OCCCN2CCOCC2)ccc2c3n(c(=NC(=O)c4cnc(N)nc4)nc12)CCN3	996289-038-R-J1-PDC spheroid viability	< 7.00
Cn1cnc2c(F)c(Nc3ccc(Br)cc3Cl)c(C(=O)NOCCO)cc21 + CC(Nc1ccc2c(c1)OCCn1cc(N3C(=O)OCC3C(F)F)nc1-2)C(N)=O	996289-038-R-J1-PDC spheroid viability	6.55
CC(C)n1nc(-c2ccc3oc(N)nc3c2)c2c(N)ncnc21 + COc1c(OCCCN2CCOCC2)ccc2c3n(c(=NC(=O)c4cnc(N)nc4)nc12)CCN3	996289-038-R-J1-PDC spheroid viability	7.26
CNC(=O)c1ccc(N2C(=S)N(c3ccc(C#N)c(C(F)(F)F)c3)C(=O)C2(C)C)cc1F + COc1c(OCCCN2CCOCC2)ccc2c3n(c(=NC(=O)c4cnc(N)nc4)nc12)CCN3	996289-038-R-J1-PDC spheroid viability	< 5.00
CC(=O)c1c(C)c2cnc(Nc3ccc(N4CCNCC4)cn3)nc2n(C2CCCC2)c1=O + COc1c(OCCCN2CCOCC2)ccc2c3n(c(=NC(=O)c4cnc(N)nc4)nc12)CCN3	996289-038-R-J1-PDC spheroid viability	< 7.00
Cn1nccc1Nc1nccc(-c2ccn(C(CO)c3ccc(Cl)c(F)c3)c(=O)c2)n1 (configuration not stated) + CC(Nc1ccc2c(c1)OCCn1cc(N3C(=O)OCC3C(F)F)nc1-2)C(N)=O	996289-038-R-J1-PDC spheroid viability	< 5.00
CC(Cn1ccc(-c2ccc(C#N)c(Cl)c2)n1)NC(=O)c1cc(C(C)O)[nH]n1 (configuration not stated) + CC(Nc1ccc2c(c1)OCCn1cc(N3C(=O)OCC3C(F)F)nc1-2)C(N)=O	996289-038-R-J1-PDC spheroid viability	< 5.00
Cn1ncc(Cl)c1-c1cc(C(=O)NC(CN)Cc2cccc(F)c2)sc1Cl (configuration not stated) + CC(Nc1ccc2c(c1)OCCn1cc(N3C(=O)OCC3C(F)F)nc1-2)C(N)=O	996289-038-R-J1-PDC spheroid viability	< 5.00
CC(C)NCC(C(=O)N1CCN(c2ncnc3c2C(C)CC3O)CC1)c1ccc(Cl)cc1 (configuration not stated) + COc1c(OCCCN2CCOCC2)ccc2c3n(c(=NC(=O)c4cnc(N)nc4)nc12)CCN3	996289-038-R-J1-PDC spheroid viability	< 5.00
C=CC(=O)N1CCN(c2nc(=O)n(-c3c(C)ccnc3C(C)C)c3nc(-c4c(O)cccc4F)c(F)cc23)C(C)C1 (configuration not stated) + CC(Nc1ccc2c(c1)OCCn1cc(N3C(=O)OCC3C(F)F)nc1-2)C(N)=O	996289-038-R-J1-PDC spheroid viability	< 5.00
